- TARGET_OR_SYSTEM: human delta-like ligand 3 (DLL3) on SHP77 cells (human) (UniProt Q9NYJ7)
- Sequence (Q9NYJ7 27-618, stated change not applied): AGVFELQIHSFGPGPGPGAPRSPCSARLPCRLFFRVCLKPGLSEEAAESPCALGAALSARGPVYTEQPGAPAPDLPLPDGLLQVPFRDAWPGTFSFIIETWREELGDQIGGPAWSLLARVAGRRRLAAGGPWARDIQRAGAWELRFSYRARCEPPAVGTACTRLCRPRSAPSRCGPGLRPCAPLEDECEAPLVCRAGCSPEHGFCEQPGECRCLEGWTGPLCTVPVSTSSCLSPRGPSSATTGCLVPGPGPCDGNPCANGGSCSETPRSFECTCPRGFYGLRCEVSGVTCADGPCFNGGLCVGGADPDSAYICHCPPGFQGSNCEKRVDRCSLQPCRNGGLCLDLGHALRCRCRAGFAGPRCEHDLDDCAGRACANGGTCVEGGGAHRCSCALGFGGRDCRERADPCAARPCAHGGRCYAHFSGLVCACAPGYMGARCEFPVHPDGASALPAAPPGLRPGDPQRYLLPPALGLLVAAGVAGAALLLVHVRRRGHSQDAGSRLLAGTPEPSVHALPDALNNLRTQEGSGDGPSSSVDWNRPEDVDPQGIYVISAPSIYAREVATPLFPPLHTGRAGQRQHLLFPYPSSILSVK
- EXPERIMENT_SUMMARY: FACS on SHP77 cells
The binders listed here are annotated with their MFI at 0.0064 nM.
Kindly provide the numeric value in MFI only, without the unit symbol.

{"columns": ["BINDER", "MFI at 0.0064 nM [MFI]"],
 "data": [
  ["Hab014VL2VH1-hFc (scFv, part only; not given: scFv linker and human IgG1 Fc, V domains shown, not shown: another chain or arm of the molecule; a dimerising Fc or GST; small tags and cut ends) VL: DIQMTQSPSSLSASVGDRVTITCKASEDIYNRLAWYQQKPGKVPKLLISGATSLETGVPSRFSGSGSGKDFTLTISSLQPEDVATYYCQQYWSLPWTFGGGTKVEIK VH: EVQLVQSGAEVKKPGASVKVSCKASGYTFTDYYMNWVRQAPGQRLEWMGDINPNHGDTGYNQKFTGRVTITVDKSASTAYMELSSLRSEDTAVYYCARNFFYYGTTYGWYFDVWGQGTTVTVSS", 99]
]}

# ---- query binder ----
Notebook: Hab008L3H5-hFc (scFv, part only; not given: scFv linker and human IgG1 Fc, V domains shown, not shown: another chain or arm of the molecule; a dimerising Fc or GST; small tags and cut ends) VL: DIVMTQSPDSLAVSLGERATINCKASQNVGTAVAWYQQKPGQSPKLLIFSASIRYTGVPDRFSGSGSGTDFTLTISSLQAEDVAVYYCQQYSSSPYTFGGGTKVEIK VH: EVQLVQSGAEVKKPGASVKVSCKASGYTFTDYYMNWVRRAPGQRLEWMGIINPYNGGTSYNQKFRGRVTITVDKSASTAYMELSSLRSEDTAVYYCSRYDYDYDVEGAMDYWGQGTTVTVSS , MFI at 0.0064 nM read as 117
